ASSAY_SYSTEM: Furin (108-574-Tev-Flag-His) enzyme (Homo sapiens, UniProt P09958)
Construct: Furin (108-574-Tev-Flag-His) enzyme was expressed and purified from CHO cells; TEV cleavage site (C); FLAG (C); His (C); made in house; host or cells: CHO cells
TEST_SUMMARY: Furin enzyme assay
Assay type: biochemical
MEASUREMENT_CONTEXT: read-out: furin enzyme pIC50 (converted)
METRIC_NAME: IC50 (pM)
Field: numeric (pM). Do not append units.

Consider the following illustrative entries.
- CNC(=O)OCC1CCN(Cc2cc(Oc3cnc(N4CCN(C)CC4)nc3)nc(-c3cc(Cl)cc(Cl)c3)c2)CC1: 1580
- CNC(=O)NCC1CCN(Cc2cc(Oc3cnc(N4CCN(CCC(C)S(C)(=O)=O)CC4)nc3)nc(-c3cc(Cl)cc(Cl)c3)c2)CC1 (stereo not shown): 63.1
- CN1CCCN(c2ccc(Oc3cc(CN4CC[C@@H]5[C@H](CC4)[C@H]5C(=O)O)cc(-c4cc(Cl)cc(Cl)c4)n3)nn2)CC1: 31.6

Sample `NS(=O)(=O)CCC1CCN(Cc2cc(Oc3ccc(N4CCN(CCC(=O)O)CC4)nc3)nc(-c3cc(Cl)cc(Cl)c3)c2)CC1` — what was its IC50?
31.6

Item under review: `CC(=O)NCC1CCN(Cc2cc(Oc3cnc(N4CCN(CCC(N)=O)CC4)nc3)cc(-c3cc(Cl)cc(Cl)c3)c2)CC1` . Reported IC50?
794

Fill in: IC50 of `CC(=O)NCC1CCN(Cc2cc(Oc3ccc(N4CCN(CCS(=O)(=O)O)CC4)nc3)nc(-c3cc(Cl)cc(Cl)c3)c2)CC1` is ___
2000

Fill blank: measured IC50 of the molecule `CC(=O)NCC1CCN(Cc2cc(Oc3ccc(N4CCN(CCC(=O)O)CC4)nn3)nc(-c3cc(Cl)cc(Cl)c3)c2)CC1` is ____.
31.6

Record request: IC50 value, item `O=C(O)CC1CCN(Cc2cc(Oc3cnc(N4CCNC5(CC5)C4)nc3)nc(-c3cc(Cl)cc(Cl)c3)c2)CC1`
3980

Give its IC50 value. Item: `COC(=O)NC(=O)CCN1CCN(c2ncc(Oc3cc(CN4CCC(CNC(C)=O)CC4)cc(-c4cc(Cl)cc(Cl)c4)n3)cn2)CC1`
251

* * *

Below: a set of entries, each annotated with reported furin enzyme pIC50.
ASSAY_SYSTEM: Furin (108-574-Tev-Flag-His) enzyme (Homo sapiens, UniProt P09958)
Construct: Furin (108-574-Tev-Flag-His) enzyme was expressed and purified from CHO cells; TEV cleavage site (C); FLAG (C); His (C); made in house; host or cells: CHO cells
TEST_SUMMARY: Furin enzyme assay
Assay type: biochemical
Structures can show the parent of a compound that is named as a salt.
API doc: respond with a numeric literal and nothing else, no unit.

Consider the reported furin enzyme pIC50 for these compounds:
• CC(=O)NCC1CCN(Cc2cc(Oc3cnc(N4CCN(CCC(=O)O)CC4)cn3)nc(-c3cc(Cl)cc(Cl)c3)c2)CC1 = 9.7
• CN1CCN(c2ncc(Oc3cc(CN4CCC(P(C)(C)=O)CC4)cc(-c4cc(Cl)cc(Cl)c4)n3)cn2)CC1 [Example 331, hydrochloride] = 7.8
• O=C(O)CC1CCN(Cc2cc(Oc3cnc(N4CCN(CC5(O)CC5)CC4)nc3)nc(-c3cc(Cl)cc(Cl)c3)c2)CC1 = 8.6
• O=C(O)CC1CCN(Cc2cc(Oc3cnc(N4CC5CNCC5C4)nc3)nc(-c3cc(Cl)cc(Cl)c3)c2)CC1 (stereo not drawn) = 8.3
• CNC(=O)NCC1CCN(Cc2cc(Oc3cnc(N4CCN(CCO)CC4)nc3)nc(-c3cc(Cl)cc(Cl)c3)c2)CC1 [Example 47, hydrochloride] = 8.9

Look up furin enzyme pIC50: `C[C@@H](O)CN1CCN(c2ncc(Oc3cc(CN4CCC(CC(=O)O)CC4)cc(-c4cc(Cl)cc(Cl)c4)n3)cn2)CC1`
9.2

* * *

The entries below are paired with their reported EC50.
ASSAY_SYSTEM: furin (endogenous protease) in U20S cells (Homo sapiens, UniProt P09958)
Construct: the endogenous protease cleaves GFP; endogenous in cells; host or cells: U2OS cells transduced with a BacMam reporter
Sequence (P09958 108-794): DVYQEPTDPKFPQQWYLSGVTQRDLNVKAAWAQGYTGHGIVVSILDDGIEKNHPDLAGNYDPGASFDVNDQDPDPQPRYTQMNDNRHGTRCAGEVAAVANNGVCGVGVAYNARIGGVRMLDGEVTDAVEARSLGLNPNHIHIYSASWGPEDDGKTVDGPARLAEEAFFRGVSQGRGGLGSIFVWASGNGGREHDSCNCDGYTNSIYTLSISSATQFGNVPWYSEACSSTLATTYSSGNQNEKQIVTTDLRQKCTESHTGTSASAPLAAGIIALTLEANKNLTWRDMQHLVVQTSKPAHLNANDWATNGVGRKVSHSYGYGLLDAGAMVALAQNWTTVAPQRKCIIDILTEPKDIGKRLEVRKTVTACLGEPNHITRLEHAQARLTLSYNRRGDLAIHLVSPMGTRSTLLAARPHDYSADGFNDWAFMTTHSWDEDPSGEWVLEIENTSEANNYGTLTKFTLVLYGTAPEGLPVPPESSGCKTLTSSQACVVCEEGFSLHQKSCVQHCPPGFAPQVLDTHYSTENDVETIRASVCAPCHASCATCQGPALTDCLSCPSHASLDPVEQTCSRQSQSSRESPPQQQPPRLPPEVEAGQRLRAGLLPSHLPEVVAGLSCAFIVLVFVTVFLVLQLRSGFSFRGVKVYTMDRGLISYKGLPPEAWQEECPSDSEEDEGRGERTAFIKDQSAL
TEST_SUMMARY: Furin cell-based assay (image-based, Golgi-targeted GFP with BMP10 furin/PCSK cleavage site)
MEASUREMENT_CONTEXT: 24-hour incubation, read-out: furin golgi cell pXC50 (converted)
Record the value in nM, omitting the unit from your answer.

A selection of reference data follows.
- CNC(=O)OCC1CCN(Cc2cc(Oc3cnc(N4CCN(C5CC(C(=O)O)C5)CC4)nc3)nc(-c3cc(Cl)cc(Cl)c3)c2)CC1 (stereo not drawn): 25.1
- O=C(O)CC1CCN(Cc2cc(Oc3cnc(N4CCN(Cc5cnn[nH]5)CC4)nc3)nc(-c3cc(Cl)cc(Cl)c3)c2)CC1: 25.1
- O=C(O)CC1CCN(Cc2cc(Oc3cnc(N4CCN(C5CC5)CC4)nc3)nc(-c3cc(Cl)cc(Cl)c3)c2)CC1: 100
- CNC(=O)NCC1CCN(Cc2cc(Oc3ccc(N4CCN(CCOC)CC4)nc3)nc(-c3cc(Cl)cc(Cl)c3)c2)CC1: 3.16
- CC(=O)NCC1CCN(Cc2cc(Oc3ccc(N4CCN(CCS(C)(=O)=O)CC4)nc3)cc(-c3cc(Cl)cc(Cl)c3)c2)CC1: 158

Proceeding to the next molecule to report its EC50.
Request the reported EC50 associated with `CN1C[C@@H]2C[C@H]1CN2c1ccc(Oc2cc(CN3CCC(CC(=O)O)CC3)cc(-c3cc(Cl)cc(Cl)c3)n2)cn1`
12.6

* * *

ASSAY_SYSTEM: Furin (108-574-Tev-Flag-His) enzyme (Homo sapiens)
Construct: Furin (108-574-Tev-Flag-His) enzyme was expressed and purified from CHO cells; TEV cleavage site (C); FLAG (C); His (C); made in house; host or cells: CHO cells
TEST_SUMMARY: Furin enzyme assay
Assay type: biochemical
Protocol: Reactions were performed in black 384-well polystyrene low volume plates (Greiner). Furin (108-574-Tev-Flag-His) enzyme was expressed and purified from CHO cells. […] Enzyme inhibition is then quantified using an Envision instrument (PerkinElmer). Data were analyzed using AbaseXE 7.3, utilizing a four-parameter curve fit equation. […] Raw counts obtained from the respective plate reader (Perkin Elmer) were captured for data analysis. […] The results were recorded as pXC50 values (−C in the above equation)
METRIC_NAME: furin enzyme pIC50

Answered cases to consult:
• CC(=O)NCC1CCN(Cc2cc(Oc3ccc(N4CCN(CCO)CC4)nc3)nc(-c3cc(Cl)cc(Cl)c3)c2)CC1 = 9.1
• NS(=O)(=O)CCCN1CCN(c2ccc(Oc3cc(CN4CCC(CC(=O)O)CC4)cc(-c4cc(Cl)cc(Cl)c4)n3)cn2)CC1 = 8.5
• CC(=O)NCC1CCN(Cc2cc(Oc3ccc(N4CCNC(CO)C4)nc3)nc(-c3cc(Cl)cc(Cl)c3)c2)CC1 (centres unmarked) = 9.2
• CP(C)(=O)CC1CCN(Cc2cc(Oc3cnc(N4CCNCC4)nc3)nc(-c3cc(Cl)cc(Cl)c3)c2)CC1 = 8

Bench note: what furin enzyme pIC50 did CC(=O)NCC1CCN(Cc2cc(Oc3cnc(N4CCN(CCC(C)C(=O)O)CC4)cn3)nc(-c3cc(Cl)cc(Cl)c3)c2)CC1 (centres unmarked) show?
10.3

Field request: furin enzyme pIC50 | item: CNC(=O)NCC1CCN(Cc2cc(Oc3cnc(N4CCN(C(C)CCO)CC4)nc3)nc(-c3cc(Cl)cc(Cl)c3)c2)CC1 (centres unmarked)
9.6

May I ask what furin enzyme pIC50 has been recorded for `CC(=O)NC(=O)NCC1CCN(Cc2cc(Oc3cnc(N4CCN(C)CC4)nc3)nc(-c3cc(Cl)cc(Cl)c3)c2)CC1` ?
8.6

* * *

ASSAY_SYSTEM: furin (endogenous protease) in U20S cells (Homo sapiens)
Construct: the endogenous protease cleaves GFP; endogenous in cells; host or cells: U2OS cells transduced with a BacMam reporter
TEST_SUMMARY: Furin cell-based assay (image-based, Golgi-targeted GFP with BMP10 furin/PCSK cleavage site);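 further: Read-out is mean GFP fluorescence of Golgi puncta per cell by high-content imaging, retained when furin inhibited, over an eleven-point 0.00017–10 µM series, four-parameter fit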
MEASUREMENT_CONTEXT: 24-hour incubation, read-out: furin golgi cell pXC50 (converted)
Where a name gives a salt, the structure may show the parent alone.
Assign labels as follows, please: yes (1) for EC50 below 20 nM; no (0) for EC50 equal to or exceeding 20 nM.

Worked examples, 5 compounds total:
- CN1CCN(c2ncc(Oc3cc(CN4CCO[C@H](CO)CC4)cc(-c4cc(Cl)cc(Cl)c4)n3)cn2)CC1 [Example 330, hydrochloride]: yes (1)
- CN1CCN(c2ncc(Oc3cc(CN4CCC(OC(C)(C)C(=O)O)CC4)cc(-c4cc(Cl)cc(Cl)c4)n3)cn2)CC1: yes (1)
- CC(=O)NCC1CCN(Cc2cc(Oc3cnc(N4CCCNCC4)nc3)nc(-c3cc(Cl)cc(Cl)c3)c2)CC1: yes (1)
- O=C(O)CC1CCN(Cc2cc(Oc3cnc(N4CC5CC(C4)N5)nc3)nc(-c3cc(Cl)cc(Cl)c3)c2)CC1: no (0)
- CN1CCN(c2ncc(Oc3cc(CN4CCC(CNC(=O)NS(C)(=O)=O)CC4)cc(-c4cc(Cl)cc(Cl)c4)n3)cn2)CC1: yes (1)

Hello, is EC50 of the following compound strictly smaller than 20 nM? `COC(=O)NCC1CCN(Cc2cc(Oc3cnc(N4CCN(CCCS(C)(=O)=O)CC4)nc3)nc(-c3cc(Cl)cc(Cl)c3)c2)CC1`
yes (1)

Hello, I'm reviewing records and need to know if EC50 of `CC(=O)NCC1(O)CCN(Cc2cc(Oc3ccc(N4CCNCC4)nc3)nc(-c3cc(Cl)cc(Cl)c3)c2)CC1` is below 20 nM. Could you check?
no (0)
